Experiment: Cyto-toxicity (MTT assay)
Type: cell-based
Settings: 0.1 μM; MTT, 4 days (Table 3); read-out: Cytotoxicity % viability
Structures can show the parent of a compound that is named as a salt.
# viability at 4 days, 0.1 µM per entry
property name: viability at 4 days, 0.1 µM (%)

compound="CC(C)C1=C2[C@H]3CC[C@@H]4[C@@]5(C)CC[C@H](OC(=O)[C@H]6C[C@@H](C(=O)O)C6(C)C)C(C)(C)[C@@H]5CC[C@@]4(C)[C@]3(C)CC[C@@]2(NC(=O)C(C)(C)NC(=O)[C@@H](N)C(C)C)CC1=O [Example 36, hydrochloride]" measurement_unit=% readout_value=15
compound="CC(C)C1=C2[C@H]3CC[C@@H]4[C@@]5(C)CC[C@H](OC(=O)[C@H]6C[C@@H](C(=O)O)C6(C)C)C(C)(C)[C@@H]5CC[C@@]4(C)[C@]3(C)CC[C@@]2(NC(=O)C(C)(C)NC(=O)C2CCNCC2)CC1=O [Example 35, hydrochloride]" measurement_unit=% readout_value=92

---

Test: Single dose oral pharmacokinetic study
Assay type: in vivo
Conditions: mouse; Mice oral PK @30 mg/kg; plasma; vehicle 10% Solutol+20% PEG; read-out: AUC0-t
# AUC(0-t) per entry
property name: AUC(0-t) (µg·h/mL)

compound="Cc1ccc(C(=O)NC2(C(=O)N[C@@]34CC[C@]5(C)[C@H](CC[C@@H]6[C@@]7(C)CC[C@H](OC(=O)[C@H]8C[C@@H](C(=O)O)C8(C)C)C(C)(C)[C@@H]7CC[C@]65C)C3=C(C(C)C)C(=O)C4)CCC2)cn1 [Example 43]" readout_value=320
compound="CC(C)C1=C2[C@H]3CC[C@@H]4[C@@]5(C)CC[C@H](OC(=O)[C@H]6C[C@@H](C(=O)O)C6(C)C)C(C)(C)[C@@H]5CC[C@@]4(C)[C@]3(C)CC[C@@]2(NC(=O)C(C)(C)NC(=O)c2ccoc2)CC1=O [Example 24]" readout_value=428
compound="Cc1cccc(C(=O)NC(C)(C)C(=O)N[C@@]23CC[C@]4(C)[C@H](CC[C@@H]5[C@@]6(C)CC[C@H](OC(=O)[C@H]7C[C@@H](C(=O)O)C7(C)C)C(C)(C)[C@@H]6CC[C@]54C)C2=C(C(C)C)C(=O)C3)n1 [Example 60]" readout_value=217
compound="Cc1ccc(C(=O)NC2(C(=O)N[C@@]34CC[C@]5(C)[C@H](CC[C@@H]6[C@@]7(C)CC[C@H](OC(=O)[C@H]8C[C@@H](C(=O)O)C8(C)C)C(C)(C)[C@@H]7CC[C@]65C)C3=C(C(C)C)C(=O)C4)CCCCC2)cc1 [Example 50]" readout_value=454

---

Assay: Cyto-toxicity (MTT assay)
Type: cell-based
Method: On day 1 calculate the number of cells required for the assay and seed 3×10^4 cells in 200 μl per well. Weigh the compound and dissolve it in DMSO to get 10 mM stock which is further diluted to 3 mM and 1 mM. […] Add DMSO to controls in a way to obtain final concentration of solvent that is not greater than 1%. Incubate for 4 days in 5% CO2 incubator at 37° C. […] Add 200 μl of 0.1N acidic isopropanol to dissolve the crystals and read the plate at 590 nm. […]
property name: viability at 4 days, 1 µM (%)

compound="CC(C)C1=C2[C@H]3CC[C@@H]4[C@@]5(C)CC[C@H](OC(=O)[C@H]6C[C@@H](C(=O)O)C6(C)C)C(C)(C)[C@@H]5CC[C@@]4(C)[C@]3(C)CC[C@@]2(NC(=O)C(C)(C)NC(=O)c2ccccc2)CC1=O [Example 3]" readout_value=7
compound="CC(C)C1=C2[C@H]3CC[C@@H]4[C@@]5(C)CC[C@H](OC(=O)[C@@H]6C[C@H](C(=O)O)C6(C)C)C(C)(C)[C@@H]5CC[C@@]4(C)[C@]3(C)CC[C@@]2(NC(=O)C(C)(C)NC(=O)c2ccc(Cl)cc2)CC1=O [Example 21]" readout_value=6
compound="Cc1cccnc1C(=O)NC(C)(C)C(=O)N[C@@]12CC[C@]3(C)[C@H](CC[C@@H]4[C@@]5(C)CC[C@H](OC(=O)[C@H]6C[C@@H](C(=O)O)C6(C)C)C(C)(C)[C@@H]5CC[C@]43C)C1=C(C(C)C)C(=O)C2 [Example 29]" readout_value=2
compound="Cc1ccc(NC(=O)NC(C)(C)C(=O)N[C@@]23CC[C@]4(C)[C@H](CC[C@@H]5[C@@]6(C)CC[C@H](OC(=O)[C@H]7C[C@@H](C(=O)O)C7(C)C)C(C)(C)[C@@H]6CC[C@]54C)C2=C(C(C)C)C(=O)C3)cn1 [Example 71]" readout_value=3
compound="Cc1ccc(C(=O)NC(C)(C)C(=O)N[C@@]23CC[C@]4(C)[C@H](CC[C@@H]5[C@@]6(C)CC[C@H](OC(=O)[C@H]7C[C@@H](C(=O)O)C7(C)C)C(C)(C)[C@@H]6CC[C@]54C)C2=C(C(C)C)C(=O)C3)cn1 [Example 61]" readout_value=2
compound="CC(C)C1=C2[C@H]3CC[C@@H]4[C@@]5(C)CC[C@H](OC(=O)[C@H]6C[C@@H](C(=O)O)C6(C)C)C(C)(C)[C@@H]5CC[C@@]4(C)[C@]3(C)CC[C@@]2(NC(=O)C(C)(C)NC(=O)OC(C)(C)C)CC1=O [Example 75]" readout_value=2

---

Assay: Single dose oral pharmacokinetic study
Assay type: in vivo
Settings: mouse; Mice oral PK @30 mg/kg; plasma; vehicle 10% Solutol+20% PEG; read-out: AUC0-t
property name: AUC(0-t) (µg·h/mL)

compound="Cc1ccc(-c2nc3cc(C(=O)NC(C)(C)C(=O)N[C@@]45CC[C@]6(C)[C@H](CC[C@@H]7[C@@]8(C)CC[C@H](OC(=O)[C@H]9C[C@@H](C(=O)O)C9(C)C)C(C)(C)[C@@H]8CC[C@]76C)C4=C(C(C)C)C(=O)C5)ccc3[nH]2)cn1 [Example 13]" readout_value=18.2
compound="CC(C)C1=C2[C@H]3CC[C@@H]4[C@@]5(C)CC[C@H](OC(=O)[C@H]6C[C@@H](C(=O)O)C6(C)C)C(C)(C)[C@@H]5CC[C@@]4(C)[C@]3(C)CC[C@@]2(NC(=O)C(C)(C)NC(=O)C2(c3ccc(Cl)cc3)CC2)CC1=O [Example 2]" readout_value=166
compound="CC(C)C1=C2[C@H]3CC[C@@H]4[C@@]5(C)CC[C@H](OC(=O)[C@H]6C[C@@H](C(=O)O)C6(C)C)C(C)(C)[C@@H]5CC[C@@]4(C)[C@]3(C)CC[C@@]2(NC(=O)C2(NC(=O)c3ncccn3)CCC2)CC1=O [Example 44]" readout_value=154
compound="Cc1ccc(C(=O)NC(C)(C)C(=O)N[C@@]23CC[C@]4(C)[C@H](CC[C@@H]5[C@@]6(C)CC[C@H](OC(=O)[C@H]7C[C@@H](C(=O)O)C7(C)C)C(C)(C)[C@@H]6CC[C@]54C)C2=C(C(C)C)C(=O)C3)cn1 [Example 61]" readout_value=615

---

Assay: Cyto-toxicity (MTT assay)
Type: cell-based
# viability at 4 days, 0.1 µM per entry
property name: viability at 4 days, 0.1 µM (%)

molecule="CC(C)C1=C2[C@H]3CC[C@@H]4[C@@]5(C)CC[C@H](OC(=O)[C@H]6C[C@@H](C(=O)O)C6(C)C)C(C)(C)[C@@H]5CC[C@@]4(C)[C@]3(C)CC[C@@]2(NC(=O)C(C)(C)NC(=O)CN2CCS(=O)(=O)CC2)CC1=O [Example 34]" readout_value=10
molecule="Cc1nc(C)c(C(=O)NC(C)(C)C(=O)N[C@@]23CC[C@]4(C)[C@H](CC[C@@H]5[C@@]6(C)CC[C@H](OC(=O)[C@H]7C[C@@H](C(=O)O)C7(C)C)C(C)(C)[C@@H]6CC[C@]54C)C2=C(C(C)C)C(=O)C3)s1 [Example 14]" readout_value=8
molecule="CC(C)C1=C2[C@H]3CC[C@@H]4[C@@]5(C)CC[C@H](OC(=O)[C@H]6C[C@@H](C(=O)O)C6(C)C)C(C)(C)[C@@H]5CC[C@@]4(C)[C@]3(C)CC[C@@]2(NC(=O)C(C)(C)NC(=O)CN2CCCCC2)CC1=O [Example 10]" readout_value=1
molecule="CC(C)C1=C2[C@H]3CC[C@@H]4[C@@]5(C)CC[C@H](OC(=O)[C@H]6C[C@@H](C(=O)O)C6(C)C)C(C)(C)[C@@H]5CC[C@@]4(C)[C@]3(C)CC[C@@]2(NC(=O)C(C)(C)NC(=O)c2ccc(F)cc2)CC1=O [Example 22]" readout_value=3

---

Experiment: Cyto-toxicity (MTT assay)
Format: cell-based
property name: viability at 4 days, 0.1 µM (%)

compound="CC(C)C1=C2[C@H]3CC[C@@H]4[C@@]5(C)CC[C@H](OC(=O)[C@H]6C[C@@H](C(=O)O)C6(C)C)C(C)(C)[C@@H]5CC[C@@]4(C)[C@]3(C)CC[C@@]2(NC(=O)C(C)(C)NC(=O)c2ccccc2)CC1=O [Example 3]" readout_value=13
compound="Cc1ccc(C(=O)NC2(C(=O)N[C@@]34CC[C@]5(C)[C@H](CC[C@@H]6[C@@]7(C)CC[C@H](OC(=O)[C@H]8C[C@@H](C(=O)O)C8(C)C)C(C)(C)[C@@H]7CC[C@]65C)C3=C(C(C)C)C(=O)C4)CC2)cn1 [Example 38]" readout_value=9
